target: GalNAc(a1-3)Gal; assay: glycan array binding signal (z-score within array); higher = stronger binding; settings: glycan notation: IUPAC condensed, linker removed
Shown is part of a subset that was picked to be rich in the strongest signals.
Hi there, I'd appreciate the recorded glycan array binding signal (z-score) for every entry that follows.
No unit in the answer, please; the number alone is enough.

Short answer for CV-IIL (Chromobacterium violaceum) (protein) AQQGVFTLPARINFGVTVLVNSAATQHVEIFVDNEPRAAFSGVGTGDNNLGTKVINSGSGNVRVQITANGRQSDLVSSQLVLANKLNLAVVGSEDGTDMDYNDSIVILNWPLG : glycan array binding signal (z-score) was -0.502

Short answer for LF82 (Escherichia coli) (protein) ADWGPCRTASGDPFIFVTSFTKNIQNPTDNVTGQTYPDFYQWALGDKYSGVCECPSPNPTEARPTLYKTESTLAAGHNSTYFKITNNLEVSTRVYIANVGNVQVPFINKSNSQPGRECDQPTFGWTTGSKGQLSLYIAKPFVGEQNIPQTIIVSVFGTKKENVYSSVPISQVLLSGKVTVTQGCELAAGTSLDIDFGEYQAHDFKGRTGQPPQNVQKIQKELTFNCTNISDGVHIYLSLEGTPNAAYPSAISLGNADVGAVIEDGKGNILKPNDSNSLLEMNPGSLYEYVKRKVTTTITAYPVSTTGKLPAAGDYSGVATMHVELDGGGGGGGGGGATTDLGAKGTLKFSLKISQGHHHHHH : glycan array binding signal (z-score) was -0.316

Short answer for Tp0751, 83732 (protein) MSYYHHHHHHLESTSLYKKAGFQHGHVPPRRIPPHDTFGALPTAALPSNARDTAAHPSDTADNTSGSSTTTDPRSHGNAPPAPVGGAAQTHTQPPVQTAMRIALWNRATHGEQGALQHLLAGLWIQTEISPNSGDIHPLLFFDREHAEITFSRASVQEIFLVDSAHTHRKTVSFLTRNTAISSIRRRLEVTFESHEVIHVRAVEDVARLKIGSTSMWDGQYTRYHAGPASAPSP : glycan array binding signal (z-score) was -0.699

Origin of measurements: the supplement of paper PMC8728848
